molecular target: GST-human KRas166 (G12V) GPPNHP (Homo sapiens, UniProt P01116, G12V); construct: made in house; host or cells: E. coli C41(DE3); assay: KRas small-molecule screening by SPR (Biacore T200); assay type: binding; conditions: compound 100 uM, 5% DMSO buffer; immobilised GST-KRas166 (G12V) GPPNHP
readout label: SPR Response Units (Response Units)
Only the number, expressed in Response Units, is required.

Data request: Which SPR Response Units reading was recorded for the molecule COc1nc(-c2cccc3c2OCCO3)ccc1Nc1cccc(CC(=O)N2CCN(C)CC2)c1 ?
Data returned: 423

Data request: Okay, and COc1nc(-c2cccc3c2O[C@H](CNC(=O)c2ccc(CN4CCN(C)CC4)o2)CO3)ccc1N ?
Data returned: 56

Data request: Okay, and COc1nc(-c2cccc3c2OCCO3)ccc1Nc1ccc(CN(C)C)cn1 ?
Data returned: 77

Data request: Okay, and COc1cccc(-c2cccc3c2OC(CNCC2CCN(C(=O)C4CCOCC4)CC2)CO3)n1 (centres unmarked) ?
Data returned: 42

Data request: Okay, and COc1nc(-c2cccc3c2OC(CNC(=O)C2CCOCC2)CO3)ccc1NC(=O)CC1CCN(C)CC1 (centres unmarked) ?
Data returned: 12

Data request: Okay, and COc1nc(-c2cccc3c2OCCO3)ccc1Nc1ccc(C(=O)NCc2cn[nH]c2)cc1 ?
Data returned: 89

Data request: Okay, and COc1cc(NC(=O)C2CNCCO2)cc(-c2cccc3c2O[C@H](CNC(=O)c2ccc(CN4CCN(C)CC4)o2)CO3)n1 (some centres unmarked) ?
Data returned: 61

Data request: Okay, and OCC1COc2cccc(-c3ccc(OCCN4CCOCC4)cn3)c2O1 (centres unmarked) ?
Data returned: 4.6

---

target: GST-human KRas166 (G12V) GPPNHP (Homo sapiens, UniProt P01116, G12V); construct: made in house; host or cells: E. coli C41(DE3); experiment: KRas small-molecule screening by SPR (Biacore T200); type: binding; conditions: compound 100 uM, 5% DMSO buffer; immobilised GST-KRas166 (G12V) GPPNHP
Hi there, I'd appreciate the recorded SPR Response Units for every entry that follows.
Only the number, expressed in Response Units, is required.

Data request: Entry COc1cccc(-c2cccc3c2OC(CNC(=O)C2CCN(C)CC2)CO3)n1 (stereo not shown) , system GST-human KRas166 (G12V) GPPNHP (Homo sapiens, UniProt P01116, G12V): what SPR Response Units was measured?
Data returned: 14

Data request: Okay, and CN1CCN(Cc2ccc(C(=O)NCC3COc4cccc(-c5ccc(OCc6ccccc6)cn5)c4O3)o2)CC1 (stereo not shown) ?
Data returned: 114

Data request: Okay, and COc1nc(-c2cccc3c2OCCO3)ccc1Nc1cccc(CNC(=O)c2ccncc2)c1 ?
Data returned: 51

Data request: Okay, and N[C@H]1CC[C@@H](NC(=O)Nc2ccnc(-c3cccc4c3OC(CNC(=O)C3CCOCC3)CO4)c2)C1 (stereo partly shown) ?
Data returned: 26

---

target: GST-human KRas166 (G12V) GPPNHP (Homo sapiens, UniProt P01116, G12V); construct: made in house; host or cells: E. coli C41(DE3); assay: KRas small-molecule screening by SPR (Biacore T200); assay type: binding; settings: compound 100 uM, 5% DMSO buffer; immobilised GST-KRas166 (G12V) GPPNHP
# binning rule on SPR Response Units: bottom range (below 60 Response Units), center range (60 Response Units to below 100 Response Units), top range (100 Response Units or more)

Data request: Hey, which category is COc1nc(-c2cccc3c2OCCO3)ccc1Nc1cccc([C@H]2CCCN2)c1 in, do you know?
Data returned: top range

Data request: Okay, and COc1nc(-c2cccc3c2OCCO3)ccc1Nc1ccc(C(=O)NCC2CCN(Cc3ccccc3)CC2)cc1 ?
Data returned: top range

Data request: Okay, and COc1nc(-c2cccc3c2OCCO3)ccc1Nc1cccc(C(=O)NCC2CCNC(=O)C2)c1 (stereo not drawn) ?
Data returned: top range

Data request: Okay, and COc1cc(NC(=O)N[C@@H]2CC[C@H](N)C2)cc(-c2cccc3c2OCCO3)n1 ?
Data returned: center range

Data request: Okay, and COc1nc(-c2cccc3c2OCCO3)ccc1Nc1cccc(C(=O)NCc2cccc(C)n2)c1 ?
Data returned: bottom range

Data request: Okay, and CN(C)Cc1cccc(Nc2ccc(-c3cccc4c3OCCO4)cc2)c1.O=CO ?
Data returned: center range

Data request: Okay, and CN1CCN(Cc2ccc(C(=O)NCC3COc4cccc(-c5cccc(=O)[nH]5)c4O3)o2)CC1 (stereo not drawn) ?
Data returned: bottom range

Data request: Okay, and COc1nc(-c2cccc3c2OCCO3)ccc1Nc1cccc(C(=O)NCC2CNC(=O)C2)c1 (stereo not drawn) ?
Data returned: top range

Data request: Okay, and CN1CCN(Cc2ccc(C(=O)NCC3COc4cccc(-c5ccc(NCC6CCOCC6)cn5)c4O3)o2)CC1 (stereo not drawn) ?
Data returned: bottom range

Data request: Okay, and COc1cccc(-c2cccc3c2OC(CN2C(=O)NC(C)(C)C2=O)CO3)n1 (stereo not drawn) ?
Data returned: bottom range

Data request: Okay, and COc1nc(-c2cccc3c2OCCO3)ccc1Nc1ccc(C(=O)NCC2CCN(C)CC2)cc1 ?
Data returned: top range

Data request: Okay, and COc1nc(-c2cccc3c2OC(CNC(=O)C2CCOCC2)CO3)ccc1Nc1ccc(C(=O)NCCO)cc1 (stereo not drawn) ?
Data returned: top range

Data request: Okay, and COc1nc(-c2cccc3c2OCCO3)ccc1Nc1cccc(CNCC2CCNC(=O)C2)c1 (stereo not drawn) ?
Data returned: top range

Data request: Okay, and COc1nc(-c2cccc3c2OCCO3)ccc1Nc1cccc(CNCC2CCN(C(C)=O)CC2)c1 ?
Data returned: top range

Data request: Okay, and COc1nc(-c2cccc3c2OCCO3)ccc1Nc1cccc(CNc2cccnc2)c1 ?
Data returned: center range

Data request: Okay, and COc1ccc(N2CC(=O)N(CC3COc4cccc(-c5cccc(OC)n5)c4O3)C2=O)cn1 (stereo not drawn) ?
Data returned: bottom range

Data request: Okay, and CN(C)CCOc1ccc(C(=O)NCC2COc3cccc(-c4cccc(=O)[nH]4)c3O2)cc1 (stereo not drawn) ?
Data returned: bottom range

Data request: Okay, and COc1nc(-c2cccc3c2OCCO3)ccc1Nc1ccc(C(=O)NCC2CCNCC2)cc1 ?
Data returned: top range

Data request: Okay, and COc1nc(-c2cccc3c2OCCO3)ccc1Nc1ccc(C(=O)NCc2cccnc2)cc1 ?
Data returned: center range

Data request: Okay, and COc1cccc(-c2cccc3c2OC(CNCc2ccc(OCCN(C)C)cc2)CO3)n1 (stereo not drawn) ?
Data returned: bottom range

Data request: Okay, and COc1nc(-c2cccc3c2OCCO3)ccc1Nc1cccc(CC(=O)NC2CCC(=O)NC2)c1 (stereo not drawn) ?
Data returned: top range

Data request: Okay, and COc1nc(-c2cccc3c2OCCO3)ccc1Nc1cccc(C(=O)NCc2cc[nH]c(=O)c2)c1 ?
Data returned: top range

Data request: Okay, and CN1CCN(Cc2ccc(C(=O)NCC3COc4cccc(-c5ccc(OCCN6CCOCC6)cn5)c4O3)o2)CC1 (stereo not drawn) ?
Data returned: bottom range

Data request: Okay, and COc1cccc(-c2cccc3c2OC(CO)CO3)n1 (stereo not drawn) ?
Data returned: bottom range

Data request: Okay, and CN(C)Cc1cccc(Nc2ccc(-c3cccc4c3OCCO4)nn2)c1 [Example 67a] ?
Data returned: bottom range

Data request: Okay, and COc1cccc(-c2cccc3c2O[C@H](CNC(=O)c2ccc(OCCN(C)C)cc2)CO3)n1 ?
Data returned: bottom range

Data request: Okay, and COc1nc(-c2cccc3c2OCCO3)ccc1Nc1cccc(CN2CCCC(C(N)=O)C2)c1 (stereo not drawn) ?
Data returned: top range

Data request: Okay, and COc1nc(-c2cccc3c2OCCO3)ccc1Nc1cccc(CNCc2cc[nH]c(=O)c2)c1 ?
Data returned: top range

Data request: Okay, and COc1cc(NC(=O)N(C)C2CCN(C)CC2)cc(-c2cccc3c2OCCO3)n1 ?
Data returned: bottom range

Data request: Okay, and COc1cccc(-c2cccc3c2OC(CNC(=O)c2ccc(CN4CCN(C)CC4)o2)CO3)n1 (stereo not drawn) ?
Data returned: top range

Data request: Okay, and COc1nc(-c2cccc3c2OC(CNC(=O)C2CCOCC2)CO3)ccc1NC(=O)N[C@H]1CC[C@@H](N)C1 (stereo partly drawn) ?
Data returned: center range

Data request: Okay, and COc1cc(NC(=O)C2CCN(C)CC2)cc(-c2cccc3c2OCCO3)n1 ?
Data returned: bottom range

// provenance: patent US12024506B2
